METHOD SUMMARY: recombinant barcode read abundance after kanamycin selection (control-corrected) (log10(CPM+1)); higher = more efficient recombination; sequences stand for … in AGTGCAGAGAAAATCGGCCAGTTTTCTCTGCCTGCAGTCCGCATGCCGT…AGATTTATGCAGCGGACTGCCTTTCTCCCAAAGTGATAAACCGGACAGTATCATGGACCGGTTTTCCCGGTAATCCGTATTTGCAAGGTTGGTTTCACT; site = the 11-nt target;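 further: IS621 recombinase and bridge RNA in Escherichia coli cells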
Classification field: Condition met = recombinant barcode read abundance (log10) at or over 0.3; Condition not met = recombinant barcode read abundance (log10) under 0.3.

SEQ | CAT
ATGCCGACTTGGGTTCTAACCTGTTGCCT (site ATGCCAACTAG) | Condition not met

Req: Hello, I need to know if CGGGCCTCTTGGGTTCTAACCTGTTGCTG (site CGGGCCTCTCA) has measured recombinant barcode read abundance (log10) not below 0.3. Thanks!
Resp: Condition met

Req: Hello, I need to know if CTAGCAGCTTGGGTTCTAACCTGTTGCAT (site CTAGCAGCTAT) has measured recombinant barcode read abundance (log10) not below 0.3. Thanks!
Resp: Condition met

Req: Hello, I need to know if CCTGTCACTTGGGTTCTAACCTGTTGCCA (site CCTGTCACTTG) has measured recombinant barcode read abundance (log10) not below 0.3. Thanks!
Resp: Condition met

Req: Hello, I need to know if TAGAGCCCTTGGGTTCTAACCTGTTGCGG (site TAGAGCCCTCC) has measured recombinant barcode read abundance (log10) not below 0.3. Thanks!
Resp: Condition met

Req: Hello, I need to know if CGTTCCTCTTGGGTTCTAACCTGTTGCCT (site CTTTCCTCTAG) has measured recombinant barcode read abundance (log10) not below 0.3. Thanks!
Resp: Condition not met
